System: C. auris Ci6684
Assay: iHOPE antimicrobial microdilution assay (turbidity OD600)
Format: cell-based, Candida auris
Settings: Candidozyma auris, CI6684; MOPS-RPMI medium, 24 h; SD in parentheses, n = 3; read-out: IC50 against C. auris Ci6684
pIC50: −log10 of the molar value. Structures can show the parent of a compound that is named as a salt.
ENDPOINT: pIC50

compound="[C-]#[N+][C@H](C)CC(=O)N[C@H]1CC[C@@H](NC(=O)C[C@@H](C)[N+]#[C-])CC1 [15a]" sign== numeric_result=7.31
compound=Nc1nc(=O)[nH]cc1F sign== numeric_result=6.43
compound="[C-]#[N+][C@@H](C)CC(=O)NCCc1ccc(NC(=O)C[C@H](C)[N+]#[C-])cc1 [12b]" sign== numeric_result=7.26
compound=CC(C)(S)[C@@H](N)C(=O)O sign=< numeric_result=3.00
compound="NCCNCCNCCN [Trientine, trientine hydrochloride]" sign=< numeric_result=4.00
compound=OC(Cn1cncn1)(Cn1cncn1)c1ccc(F)cc1F sign=< numeric_result=4.52
compound=C[C@@H]1[C@H](O)[C@@H](C)/C=C/C=C/C=C/C=C/C=C/C=C/C=C/[C@H](O[C@@H]2O[C@H](C)[C@@H](O)[C@H](N)[C@@H]2O)C[C@@H]2O[C@](O)(C[C@@H](O)C[C@@H](O)[C@H](O)CC[C@@H](O)C[C@@H](O)CC(=O)O[C@H]1C)C[C@H](O)[C@H]2C(=O)O sign== numeric_result=6.39
compound="[C-]#[N+][C@@H](C)CC(=O)N[C@H]1CC[C@@H](NC(=O)C[C@H](C)[N+]#[C-])CC1 [15b]" sign== numeric_result=7.21
compound="[C-]#[N+][C@H](C)CC(=O)NCCc1ccc(NC(=O)C[C@@H](C)[N+]#[C-])cc1 [12a]" sign== numeric_result=7.24

----------
In this section we review reported pIC50 values for a set of compounds.
Test system: C. auris Ci6684
Experiment: iHOPE antimicrobial microdilution assay (turbidity OD600)
Format: cell-based, Candida auris
Conditions: Candidozyma auris, CI6684, 24 h, read-out: IC50 against C. auris Ci6684
pIC50: −log10 of the molar value. Numbered stars: 1 amine (or outer) side, 2 acyl side, 3 side chain; on linkers, the order of the positions; unused ones are H or OH. Bridge positions count the residues as written; N and C are the ends. Square brackets hold non-standard residues; d marks the D form. Peptide text beside a SMILES is read from it. * marks the point of attachment. hTyr(3S-OH,4S-OH,3'-OSO3H) = N[C@H](C(=O)O)[C@H](O)[C@@H](O)c1ccc(O)c(OS(=O)(=O)O)c1; Orn(4R-OH,5R-OH) = O=C([C@H](C[C@@H](O)[C@@H](O)N[*:3])N[*:1])[*:2]; Pro(3S-OH,4S-Me) = C[C@H]1CN[C@H](C(=O)O)[C@H]1O; X1 = CCCCCOc1ccc(-c2cc(-c3ccc(C(=O)*)cc3)no2)cc1; Gln(3R-OH) = NC(=O)C[C@@H](O)[C@H](N)C(=O)O; Hyp = O=C(O)[C@@H]1C[C@@H](O)CN1
ENDPOINT: pIC50

compound="CCCCCOc1ccc(-c2cc(-c3ccc(C(=O)N[C@H]4C[C@@H](O)[C@@H](O)NC(=O)[C@@H]5[C@@H](O)[C@@H](C)CN5C(=O)[C@H]([C@H](O)CC(N)=O)NC(=O)[C@H]([C@H](O)[C@@H](O)c5ccc(O)c(OS(=O)(=O)O)c5)NC(=O)[C@@H]5C[C@@H](O)CN5C(=O)[C@H]([C@@H](C)O)NC4=O)cc3)no2)cc1 [Micafungin, micafungin] (X1-[Orn(4R-OH,5R-OH)]T[Hyp][hTyr(3S-OH,4S-OH,3'-OSO3H)][Gln(3R-OH)][Pro(3S-OH,4S-Me)]; lactam 1-C)" numeric_result=7.54
compound="[C-]#[N+][C@H](C)CC(=O)NC[C@@H]1CC[C@H](NC(=O)C[C@@H](C)[N+]#[C-])C(O)O1 (some centres unmarked)" numeric_result=7.70

----------
In this section we review reported IC50 values for a set of compounds.
Test system: A. fumigatus Af293
Assay: iHOPE antimicrobial microdilution assay
Assay type: cell-based, Aspergillus fumigatus
Settings: Aspergillus fumigatus, AF293, read-out: IC50 against A. fumigatus Af293
Numbered stars: 1 amine (or outer) side, 2 acyl side, 3 side chain; on linkers, the order of the positions; unused ones are H or OH. Bridge positions count the residues as written; N and C are the ends. Square brackets hold non-standard residues; d marks the D form. Peptide text beside a SMILES is read from it. * marks the point of attachment. hTyr(3S-OH,4S-OH,3'-OSO3H) = N[C@H](C(=O)O)[C@H](O)[C@@H](O)c1ccc(O)c(OS(=O)(=O)O)c1; Orn(4R-OH,5R-OH) = O=C([C@H](C[C@@H](O)[C@@H](O)N[*:3])N[*:1])[*:2]; Pro(3S-OH,4S-Me) = C[C@H]1CN[C@H](C(=O)O)[C@H]1O; X1 = CCCCCOc1ccc(-c2cc(-c3ccc(C(=O)*)cc3)no2)cc1; Gln(3R-OH) = NC(=O)C[C@@H](O)[C@H](N)C(=O)O; Hyp = O=C(O)[C@@H]1C[C@@H](O)CN1
ENDPOINT: IC50 (nM)

compound="CCCCCOc1ccc(-c2cc(-c3ccc(C(=O)N[C@H]4C[C@@H](O)[C@@H](O)NC(=O)[C@@H]5[C@@H](O)[C@@H](C)CN5C(=O)[C@H]([C@H](O)CC(N)=O)NC(=O)[C@H]([C@H](O)[C@@H](O)c5ccc(O)c(OS(=O)(=O)O)c5)NC(=O)[C@@H]5C[C@@H](O)CN5C(=O)[C@H]([C@@H](C)O)NC4=O)cc3)no2)cc1 [Micafungin, micafungin] (X1-[Orn(4R-OH,5R-OH)]T[Hyp][hTyr(3S-OH,4S-OH,3'-OSO3H)][Gln(3R-OH)][Pro(3S-OH,4S-Me)]; lactam 1-C)" numeric_result=4
compound="[C-]#[N+][C@H](C)CC(=O)NC[C@@H]1CC[C@H](NC(=O)C[C@@H](C)[N+]#[C-])C(O)O1 (some centres unmarked) [SF2768]" numeric_result=120

----------
In this section we review reported IC50 values for a set of compounds.
Tested on: A. fumigatus Af293
Assay: iHOPE antimicrobial microdilution assay
Format: cell-based, Aspergillus fumigatus
Settings: Aspergillus fumigatus, AF293; SD in parentheses, n = 3; read-out: IC50 against A. fumigatus Af293
Counter-ions that a name gives are not always drawn.
ENDPOINT: IC50

compound=OC(Cn1cncn1)(Cn1cncn1)c1ccc(F)cc1F subject_of_test="A. fumigatus Af293" endpoint=IC50 result="> 30 µM"
compound="NCCNCCNCCN [Trientine, trientine hydrochloride]" subject_of_test="A. fumigatus Af293" endpoint=IC50 result="8.1 µM"
compound=Nc1nc(=O)[nH]cc1F subject_of_test="A. fumigatus Af293" endpoint=IC50 result="15 µM"
compound=CC(C)(S)[C@@H](N)C(=O)O subject_of_test="A. fumigatus Af293" endpoint=IC50 result="> 1000 µM"
compound=C[C@@H]1[C@H](O)[C@@H](C)/C=C/C=C/C=C/C=C/C=C/C=C/C=C/[C@H](O[C@@H]2O[C@H](C)[C@@H](O)[C@H](N)[C@@H]2O)C[C@@H]2O[C@](O)(C[C@@H](O)C[C@@H](O)[C@H](O)CC[C@@H](O)C[C@@H](O)CC(=O)O[C@H]1C)C[C@H](O)[C@H]2C(=O)O subject_of_test="A. fumigatus Af293" endpoint=IC50 result="0.21 µM"

----------
System: C. glabrata JCM3761
Test: iHOPE antimicrobial microdilution assay (turbidity OD600)
Format: cell-based, Candida glabrata
Conditions: Nakaseomyces glabratus, JCM3761; MOPS-RPMI medium, 24 h; SD in parentheses, n = 3; read-out: IC50 against C. glabrata JCM3761
pIC50: −log10 of the molar value. Structures can show the parent of a compound that is named as a salt.
In this section we review reported pIC50 values for a set of compounds.
ENDPOINT: pIC50

compound="[C-]#[N+][C@H](C)CC(=O)NCCc1ccc(NC(=O)C[C@@H](C)[N+]#[C-])cc1 [12a]" endpoint=pIC50 numeric_result=8.00
compound="C[C@@H]1[C@H](O)[C@@H](C)/C=C/C=C/C=C/C=C/C=C/C=C/C=C/[C@H](O[C@@H]2O[C@H](C)[C@@H](O)[C@H](N)[C@@H]2O)C[C@@H]2O[C@](O)(C[C@@H](O)C[C@@H](O)[C@H](O)CC[C@@H](O)C[C@@H](O)CC(=O)O[C@H]1C)C[C@H](O)[C@H]2C(=O)O [Amphotericin B, amphotericin B]" endpoint=pIC50 numeric_result=7.20
compound="OC(Cn1cncn1)(Cn1cncn1)c1ccc(F)cc1F [Fluconazole, fluconazole]" endpoint=pIC50 numeric_result=6.16
compound="Nc1nc(=O)[nH]cc1F [5-FC, 5-fluorocytosine]" endpoint=pIC50 numeric_result=7.09
compound="NCCNCCNCCN [Trientine, trientine hydrochloride]" endpoint=pIC50 numeric_result=6.92
